# Type: in vitro ADME, Rat
# test.conditions: rat, pH 7.4
*1 amine or outer side, *2 acyl side, *3 side chain or, on linkers, in order; H or OH if unused. Where a SMILES comes first, the peptide text is derived from it. [ ]: non-standard residue; d: D form. Trp(1-(1,1-Me2-allyl)) = C=CC(C)(C)n1cc(C[C@H](N)C(=O)O)c2ccccc21; Ala(3R-Me,3-isobutenyl) = CC(C)=C[C@@H](C)[C@H](N)C(=O)O; NMeTrp(1-Me) = CN[C@@H](Cc1cn(C)c2ccccc12)C(=O)O; X1 = C#CCn1cc(C[C@H](N[*:1])C(=O)[*:2])c2ccccc21; NMeLeu(5-OH,4R) = CN[C@@H](C[C@@H](C)CO)C(=O)O; Phe(βR-OMe) = CO[C@H](c1ccccc1)[C@H](N)C(=O)O; NMeL = CN[C@@H](CC(C)C)C(=O)O; Pra = C#CC[C@H](N)C(=O)O
measurement.name: Hepatocyte Rat
The number alone won't do; follow it with the unit.

Previously resolved entries follow.
- C=CC(C)(C)n1cc(C[C@@H]2NC(=O)[C@H]([C@H](C)C=C(C)C)NC(=O)[C@H](CC(C)C)N(C)C(=O)[C@H](C(C)C)NC(=O)[C@H]([C@H](OC)c3ccccc3)NC(=O)[C@H](C)NC(=O)[C@H](C[C@@H](C)CO)N(C)C2=O)c2ccccc21 [dCymC] (cyclo([Trp(1-(1,1-Me2-allyl))][NMeLeu(5-OH,4R)]A[Phe(βR-OMe)]V[NMeL][Ala(3R-Me,3-isobutenyl)])): 55 %Qh
- CO[C@H](c1ccccc1)[C@@H]1NC(=O)[C@H](C)NC(=O)[C@H](C[C@@H](C)CO)N(C)C(=O)[C@H](Cc2cn(Cc3cn(CCOCCOCCOCCOCCn4cc(Cn5cc(C[C@H]6C(=O)N(C)[C@@H](C[C@@H](C)CO)C(=O)N[C@@H](C)C(=O)N[C@@H]([C@H](OC)c7ccccc7)C(=O)N[C@@H](C(C)C)C(=O)N(C)[C@@H](CC(C)C)C(=O)N[C@@H](C(C)C)C(=O)N6C)c6ccccc65)nn4)nn3)c3ccccc23)N(C)C(=O)[C@H](C(C)C)NC(=O)[C@H](CC(C)C)N(C)C(=O)[C@H](C(C)C)NC1=O [Compound 27]: 6 %Qh
- COC(c1ccccc1)C1NC(=O)C(C)NC(=O)C(CC(C)CO)N(C)C(=O)C(Cc2cn(CC=CCn3cc(CC4NC(=O)C(C(C)C)NC(=O)C(CC(C)C)N(C)C(=O)C(C(C)C)NC(=O)C(C(OC)c5ccccc5)NC(=O)C(C)NC(=O)C(CC(C)CO)N(C)C4=O)c4ccccc43)c3ccccc23)NC(=O)C(C(C)C)NC(=O)C(CC(C)C)N(C)C(=O)C(C(C)C)NC1=O (centres unmarked) [Compound 15]: 6 %Qh

I'm hoping you can list Hepatocyte Rat for every compound here, please.
1. C#CC[C@@H]1NC(=O)[C@H](CC(C)C)N(C)C(=O)[C@H](C(C)C)NC(=O)[C@H]([C@H](OC)c2ccccc2)NC(=O)[C@H](C)NC(=O)[C@H](C[C@@H](C)CO)N(C)C(=O)[C@H](Cc2cn(C)c3ccccc23)N(C)C1=O [Compound 20] (cyclo(A[Phe(βR-OMe)]V[NMeL][Pra][NMeTrp(1-Me)][NMeLeu(5-OH,4R)]))
2. C#CCn1cc(C[C@@H]2NC(=O)[C@H](C(C)C)NC(=O)[C@H](CC(C)C)N(C)C(=O)[C@H](C(C)C)NC(=O)[C@H]([C@H](OC)c3ccccc3)NC(=O)[C@H](C)NC(=O)[C@H](C[C@@H](C)CO)N(C)C2=O)c2ccccc21 [Compound 5] (cyclo(A[Phe(βR-OMe)]V[NMeL]V[X1][NMeLeu(5-OH,4R)]))

["63 %Qh", "51 %Qh"]

###

# assay.text: in vitro
# test.conditions: human, Caco-2, Caco-2 permeability P (B-A), basolateral to apical
# Description: Supplementary Table 1. Structure-Activity Relationships part 1 (SPR, Caco-2) […] SPR. Mean values ± standard deviation. Footnotes indicate the number of measurements performed for the respective compound: a) n = […] [5] Permeability across Caco-2 monolayers in P(A−B): apical to basolateral and P(B−A): basolateral to apical direction (values reported in 10- 6 cm s-1); efflux ratio = P(B−A)/P(A−B); Int. perm: mean value of P(A−B) and P(B−A). […] Influence of Trp-Nα methylation on P(A-B) and efflux ratio. […]
measurement.name: Papp B→A

For the molecule CO[C@H](c1ccccc1)[C@@H]1NC(=O)[C@H](C)NC(=O)[C@H](C[C@@H](C)CO)N(C)C(=O)[C@H](Cc2cn(Cc3cn(CCCCCn4cc(Cn5cc(C[C@H]6C(=O)N(C)[C@@H](C[C@@H](C)CO)C(=O)N[C@@H](C)C(=O)N[C@@H]([C@H](OC)c7ccccc7)C(=O)N[C@@H](C(C)C)C(=O)N(C)[C@@H](CC(C)C)C(=O)N[C@@H](C(C)C)C(=O)N6C)c6ccccc65)nn4)nn3)c3ccccc23)N(C)C(=O)[C@H](C(C)C)NC(=O)[C@H](CC(C)C)N(C)C(=O)[C@H](C(C)C)NC1=O , what Papp B→A is on record?
< 0.7 ×10⁻⁶ cm/s

###

# Type: in vitro ADME, Rat
# test.conditions: Rat
Where a SMILES comes first, the peptide text is derived from it. [ ]: non-standard residue; d: D form. NMeLeu(5-OH,4R) = CN[C@@H](C[C@@H](C)CO)C(=O)O; Phe(βR-OMe) = CO[C@H](c1ccccc1)[C@H](N)C(=O)O; Trp(1-Me) = Cn1cc(C[C@H](N)C(=O)O)c2ccccc21; NMeL = CN[C@@H](CC(C)C)C(=O)O; Pra = C#CC[C@H](N)C(=O)O
Could you please report measured Microsomal Stability Rat QH for the items listed next?
Give bare numbers, in %.

* C#CC[C@@H]1NC(=O)[C@H](CC(C)C)N(C)C(=O)[C@H](C(C)C)NC(=O)[C@H]([C@H](OC)c2ccccc2)NC(=O)[C@H](C)NC(=O)[C@H](C[C@@H](C)CO)N(C)C(=O)[C@H](Cc2cn(C)c3ccccc23)NC1=O [Compound 10] (cyclo(A[Phe(βR-OMe)]V[NMeL][Pra][Trp(1-Me)][NMeLeu(5-OH,4R)])) | 84.600

For the compound CO[C@H](c1ccccc1)[C@@H]1NC(=O)[C@H](C)NC(=O)[C@H](C[C@@H](C)CO)N(C)C(=O)[C@H](Cc2cn(C)c3ccccc23)NC(=O)[C@H](CCC(=O)N(C)C)NC(=O)[C@H](CC(C)C)N(C)C(=O)[C@H](C(C)C)NC1=O [SI-74] (cyclo(A[Phe(βR-OMe)]V[NMeL]E(NMe2)[Trp(1-Me)][NMeLeu(5-OH,4R)])) , what Microsomal Stability Rat QH is on record?
60.700

###

Could you please report measured MIC for the items listed next?
# Tested on: Staphylococcus aureus
# assay.text: MIC ESKAPES panel, Staphylococcus aureus
# Assay type: cell-based
# test.conditions: Staphylococcus aureus; Gram positive; n = 3 well replicates
*1 amine or outer side, *2 acyl side, *3 side chain or, on linkers, in order; H or OH if unused. Where a SMILES comes first, the peptide text is derived from it. [ ]: non-standard residue; d: D form. X1 = C#CCn1cc(C[C@H](N[*:1])C(=O)[*:2])c2ccccc21; NMeLeu(5-OH,4R) = CN[C@@H](C[C@@H](C)CO)C(=O)O; Phe(βR-OMe) = CO[C@H](c1ccccc1)[C@H](N)C(=O)O; Trp(1-Me) = Cn1cc(C[C@H](N)C(=O)O)c2ccccc21; NMeL = CN[C@@H](CC(C)C)C(=O)O; Pra = C#CC[C@H](N)C(=O)O

Previously resolved entries follow.
- COC(c1ccccc1)C1NC(=O)C(C)NC(=O)C(CC(C)CO)N(C)C(=O)C(Cc2cn(Cc3cn(CCOCCOCCOCCOCCn4cc(Cn5cc(CC6NC(=O)C(C(C)C)NC(=O)C(CC(C)C)N(C)C(=O)C(C(C)C)NC(=O)C(C(OC)c7ccccc7)NC(=O)C(C)NC(=O)C(CC(C)CO)N(C)C6=O)c6ccccc65)nn4)nn3)c3ccccc23)NC(=O)C(C(C)C)NC(=O)C(CC(C)C)N(C)C(=O)C(C(C)C)NC1=O (centres unmarked) [Compound 8]: > 50 µM
- C#CCn1cc(C[C@@H]2NC(=O)[C@H](C(C)C)NC(=O)[C@H](CC(C)C)N(C)C(=O)[C@H](C(C)C)NC(=O)[C@H]([C@H](OC)c3ccccc3)NC(=O)[C@H](C)NC(=O)[C@H](C[C@@H](C)CO)N(C)C2=O)c2ccccc21 [Compound 5] (cyclo(A[Phe(βR-OMe)]V[NMeL]V[X1][NMeLeu(5-OH,4R)])): > 50 µM

I'm hoping you can list MIC for every compound here, please.
1. COC(c1ccccc1)C1NC(=O)C(C)NC(=O)C(CC(C)CO)N(C)C(=O)C(Cc2cn(C)c3ccccc23)NC(=O)C(Cc2cn(CCCCCn3cc(CC4NC(=O)C(CC(C)C)N(C)C(=O)C(C(C)C)NC(=O)C(C(OC)c5ccccc5)NC(=O)C(C)NC(=O)C(CC(C)CO)N(C)C(=O)C(Cc5cn(C)c6ccccc56)NC4=O)nn3)nn2)NC(=O)C(CC(C)C)N(C)C(=O)C(C(C)C)NC1=O (centres unmarked) [Compound 12]
2. COc1c(N2C[C@@H]3CCCN[C@@H]3C2)c(F)cc2c(=O)c(C(=O)O)cn(C3CC3)c12 [Moxifloxacin, reference compound]
3. C#CC[C@@H]1NC(=O)[C@H](CC(C)C)N(C)C(=O)[C@H](C(C)C)NC(=O)[C@H]([C@H](OC)c2ccccc2)NC(=O)[C@H](C)NC(=O)[C@H](C[C@@H](C)CO)N(C)C(=O)[C@H](Cc2cn(C)c3ccccc23)NC1=O [Compound 10] (cyclo(A[Phe(βR-OMe)]V[NMeL][Pra][Trp(1-Me)][NMeLeu(5-OH,4R)]))

1. > 50 µM
2. 0.3 µM
3. > 50 µM
